# targetOrTestSystem: endogenously expressed human MSR1 on PMA-treated THP-1 cells (human) (UniProt P21757)
# Sequence (P21757 whole entry): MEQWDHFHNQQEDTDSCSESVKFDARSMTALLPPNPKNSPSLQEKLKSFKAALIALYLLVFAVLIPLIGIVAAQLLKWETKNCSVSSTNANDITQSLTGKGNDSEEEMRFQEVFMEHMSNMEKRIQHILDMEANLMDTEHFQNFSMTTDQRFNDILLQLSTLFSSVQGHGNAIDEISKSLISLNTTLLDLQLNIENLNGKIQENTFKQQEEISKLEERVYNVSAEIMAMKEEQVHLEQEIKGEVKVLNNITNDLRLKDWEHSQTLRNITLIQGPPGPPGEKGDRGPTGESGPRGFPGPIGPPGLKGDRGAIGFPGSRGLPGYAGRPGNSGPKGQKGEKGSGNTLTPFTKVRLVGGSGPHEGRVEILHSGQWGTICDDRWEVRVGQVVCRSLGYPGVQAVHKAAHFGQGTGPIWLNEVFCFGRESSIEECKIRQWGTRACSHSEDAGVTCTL
# assayProcedure: cell-based or functional assay
Answer each item with its documented Total Internalized RFU.
Unit RFU implied. Number only.

[Q] What measured Total Internalized RFU goes with H1H27747P-N297Q (antibody, human IgG1, V domains shown) VH: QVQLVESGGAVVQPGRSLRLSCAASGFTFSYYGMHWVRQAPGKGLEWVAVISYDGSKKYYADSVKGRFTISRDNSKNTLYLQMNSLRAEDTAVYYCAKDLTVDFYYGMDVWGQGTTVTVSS VL: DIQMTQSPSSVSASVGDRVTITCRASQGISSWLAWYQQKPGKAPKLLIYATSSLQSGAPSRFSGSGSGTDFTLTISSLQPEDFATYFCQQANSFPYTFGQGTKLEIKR ?
[A] 3.44e+06

[Q] What value of Total Internalized RFU has been reported for the following binder? H1H21227N-N297Q (antibody, human IgG1, V domains shown) VH: QVQLVQSGAEVKKPGASVKVSCKVSGYTLTELSIHWVRQVPGKGLEWMGGFDPEEGETIFAQEFRDRVTLTEDTSPDTAYMELSSLKSEDAAVYYCTTPRYCNNGICYDYWGQGTLVTVSS VL: DIQMTQSPSSLSASVGDRVTITCRASQSISNYLNWYQQKPGKAPKLLIYTASSLQSGVPSRFSGSGSGTDFTLTISSLQTEDFATYYCQQSYSNFPITFGQGTRLEIKR
[A] 3.23e+06

[Q] Can you look up the measured Total Internalized RFU of H1H27734P-N297Q (antibody, human IgG1, V domains shown) VH: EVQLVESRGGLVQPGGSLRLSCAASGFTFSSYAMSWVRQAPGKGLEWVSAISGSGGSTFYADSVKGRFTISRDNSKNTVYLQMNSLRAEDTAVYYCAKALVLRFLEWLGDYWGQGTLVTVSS VL: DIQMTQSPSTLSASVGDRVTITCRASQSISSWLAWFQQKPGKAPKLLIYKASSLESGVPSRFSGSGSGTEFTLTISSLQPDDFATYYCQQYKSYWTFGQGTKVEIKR for me?
[A] 737000

[Q] # input binder: H1H27754P-N297Q (antibody, human IgG1, V domains shown) VH: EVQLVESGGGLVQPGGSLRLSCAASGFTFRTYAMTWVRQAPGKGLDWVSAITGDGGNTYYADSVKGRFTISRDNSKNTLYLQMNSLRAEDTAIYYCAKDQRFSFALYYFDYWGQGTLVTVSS VL: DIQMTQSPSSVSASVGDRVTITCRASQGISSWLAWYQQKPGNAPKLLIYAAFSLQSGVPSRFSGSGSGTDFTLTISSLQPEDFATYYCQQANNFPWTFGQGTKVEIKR ; wanted: its Total Internalized RFU
[A] 6.45e+06
